Origin of the recorded values: patent US20190106487A1

Readings of functional reporter gene assay (% inhibition), 0.04 µg/mL mAb for the listed binders
Target: T1, human IL-1RAcP on 293T/17-FR cells (human, UniProt Q9NPH3 21-570)
T1 sequence (looked up): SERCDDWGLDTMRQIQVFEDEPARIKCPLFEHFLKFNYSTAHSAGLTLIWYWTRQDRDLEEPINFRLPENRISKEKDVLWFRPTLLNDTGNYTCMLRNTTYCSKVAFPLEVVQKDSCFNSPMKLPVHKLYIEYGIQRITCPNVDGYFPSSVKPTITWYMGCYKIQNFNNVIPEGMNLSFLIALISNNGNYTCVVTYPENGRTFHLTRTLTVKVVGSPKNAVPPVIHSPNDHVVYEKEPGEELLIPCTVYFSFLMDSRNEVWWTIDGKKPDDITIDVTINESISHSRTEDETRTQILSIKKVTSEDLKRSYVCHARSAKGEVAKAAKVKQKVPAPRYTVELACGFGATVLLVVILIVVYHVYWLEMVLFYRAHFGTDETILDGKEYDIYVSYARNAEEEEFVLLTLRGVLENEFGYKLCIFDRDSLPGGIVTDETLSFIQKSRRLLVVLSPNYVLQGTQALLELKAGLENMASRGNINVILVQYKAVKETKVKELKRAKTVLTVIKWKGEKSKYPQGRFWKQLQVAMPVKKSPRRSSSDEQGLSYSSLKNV
Assay: cell-based or functional assay
Give the quantity in %, number only.

Answered cases to consult:
P013.S.01.B.C06 (antibody, V domains shown, rabbit monoclonal antibody; also called P013.A.00014.D06) VH: QSVEESGGRLVTPGGSLTLTCTVSGFSLSIYAMGWFRQAPGKGLEWIGDIYAGSGSTWYASWAKGRFTISKTSTTVDLKITSPTTEDTATYFCAREIDAGYVGYGFNLWGQGTLVTVSS VL: AQALTQTPSSVSAAVGGTVTINCQSSQSVYSDYLAWYQQKPGQPPKLLIYQASKLATGVPSRFKGSGSGTQFTLTISGVQSDDAATYYCQATYYGSGWYRAFGGGTELVVK :: 15
P013.S.01.B.G06 (antibody, V domains shown, rabbit monoclonal antibody; also called P013.A.00085.H05) VH: QSLEESGGRLVTPGTPLTLTCTASGFTISSYYMSWVRQAPGKGLEWIGGIATDGNTYYANWAKGRFTVSRTSTTVDLKVTSPTAEDTATYFCARGGPAYSRGTHYAMDLWGPGTLVTVSS VL: AYDMTQTPASVEVAVGGTVTIKCQASQSIYIYLAWYQQKPGQRPKQLIYDASKLASGVPSRFSGSGSGTEFTLTISGVESADAATYYCQQGATIWNVDNPFGGGTEVVVK :: 69
P013.S.02.B.A05 (antibody, V domains shown, rabbit monoclonal antibody; also called P013.A.00031.D11) VH: QEQLVESGGGLVQPEGSLTLTCQASGFTFSSYYVICWVRQAPGKGLEWIACIGTGDGLTYYASWAKGRFTISKTSSTTVTLQMTSLTAADTATYFCARDRYATVSGILNLWGPGTLVTVSS VL: DVVMTQTPASVEAAVGGTVTIKCQASQNIYSNCAWYQQKLGQRPKLLIYYVSTLESGVPSRFEGSGYGTEFTLTISDLQSADAATYYCQYTYDSSSSTSWAFGGGTEVVVK :: -16
P013.S.02.B.E03 (antibody, V domains shown, rabbit monoclonal antibody; also called P013.A.00091.A10) VH: QSVEESGGRLVTPGTPLTLTCTVSGFSLSDYYMGWVRQAPGKGLEWIGTIDGGGSTYYASWAKGRFTVSKTSTTVDLTITSPTTEDTAIYFCARNYYAGLSDVFFGWWGQGTLVTVSS VL: DVVMTQTPASVEAAVGGTVTIMCQASETIYSGLAWYQQKPGQPPKLLIYYTSSLASGVPSRFKGSGSGTEFTLTISDLESADAATYYCQTYYDSEGRSYGYNSFGGGTEVVVK :: 6
P013.S.02.B.D05 (antibody, V domains shown, rabbit monoclonal antibody; also called P013.A.00086.B09) VH: QQQLVESGGGLVKPGASLTLTCKASGFSFSSGYYMCWVRQAPGKGLEWIACIGMGSGKTYYASWAKGRFTISKTSSTTVTLQMTSLTAADTATYFCARKDGSGNEHYNLWGPGTLVTVSS VL: DIVMTQTPASVEAAVGGTVTIRCQASQSISSYLAWYQRKPGQPPKVLIYKASTLASGVSSRFKGSGSGTEYTLTISDLESADAATYYCQQGYASSGVDNVFGGGTEVVVK :: 1
P013.S.01.B.G05 (antibody, V domains shown, rabbit monoclonal antibody; also called P013.A.00088.C10) VH: LEQSGGGAEGGLVKPGGSLELCCKASGFSLSSAYWICWVRQAPGKGLEWVGCIYADSSSITYYASWVNGRFTLSRDIDQSTGCLQLNSLTAADTAMYYCARDYGGSGYNFNLWGQGTLVTVSS VL: ALVMTQTPSPVSAAVGGTVTISCQASEDIYSNLAWYQQKRGQPPKLLIYYASTLASGVPSRFSGSGSGTEFTLTISGLQSDDAATYYCLGVCTYINANGWDNAFGGGTEVVVK :: 21
P013.S.01.B.A04 (antibody, V domains shown, rabbit monoclonal antibody; also called P013.A.00085.C03) VH: QEQLEESGGGLVKPGGTLTLTCKASGIDFSSYYYMCWVRQAPGKGLEWIACIFIGYGDVTWYASWAKGRFTISKASSTTVTLQMTSLTAADTATYFCARALGSSGYRVNLWGPGTLVTVSS VL: ALVMTQTPSSVSAAVGGTVTINCQASENIYSSLAWYQQKPGQPPKLLIYDASDLASGVPSRFKGSGSGKEFTLTISDLESDDAATYYCQQGYYSGGTDNDVFGGGTEVVVK :: 47
P013.S.01.B.A06 (antibody, V domains shown, rabbit monoclonal antibody; also called P013.A.00133.B12) VH: QSLEESGGRLVTPGTPLTLSCKVSGFSLSSYDMSWVRQTPGKGLEWIGTIYIGGTTAYASWPKGRFTISKTSTTVDLKITSPTKEDTATYFCARLQGANYYNSLALWGQGTLVTVSS VL: DVVMTQTPASVSEPVGGTVTIKCQASQSIYSFLSWYQQKPGQPPKLLIYAASDLESGVPSRFSGSGYGTEFTLTISDLESADAATYYCQCNYIIDYGAFGGGTEVVVK :: 14

stdin: Suppose we examine the binder P013.S.01.B.F06 (antibody, V domains shown, rabbit monoclonal antibody; also called P013.A.00045.E09) VH: QSVEESGGRLVTPGTPLTLTCTVSGIDLSSDAVGWVRQAPGKGLEYIGIIVSSGETFYASWARGRCTISKTSSTTVDLRITRLTTEDTATYFCARGGPGYSFDTEYAFDPWGPGTLVTVSS VL: AFEMTQTPASVEVAVGGTVTINCQASQSIGSWLSWYQQKVGQRPKLLISRASTLASGVPSRFKGSGSGTEYTLTISGVQSDDAATFYCQQGATTYDVDNVFGGGTEVVVR ; what functional reporter gene assay (% inhibition), 0.04 µg/mL mAb value has been reported?
stdout: 41

stdin: Please give the measured functional reporter gene assay (% inhibition), 0.04 µg/mL mAb for this binder: P013.S.01.B.F03 (antibody, V domains shown, rabbit monoclonal antibody; also called P013.A.00025.F02) VH: LEQSGGGAEGGLVKPGGSLELCCKASGFSLGSSYWICWVRQAPGKGLEWIGCIYAGSSGITYYASWVSGRFTLSRDIDQSTGCLQLNSLTAADTAMYYCARDIYASTSGYDLWGQGTLVTVSS VL: ALVMTQTPSPVSAAVGGTVTINCQASEDIYSNLAWFQQKPGQPPKLLIYQASTLASGVPSRFSGSGSGTEFTLTISGLQSDDAAAYYCLGVCTYIGADNTLYNTFGGGTEVVVK
stdout: 26
